Tested on: HCT-116 colorectal carcinoma cells
assay.text: MTT cell viability assay, HCT-116
Type: cell-based, human
protocol.conditions: HCT-116 versus MRC-5 fibroblasts
experimental.endpoint: Selectivity indices (SI), HCT-116
Give your answer as a number; write no unit.

// known answers, use as guide
COc1ccc(C=NNc2nc(-c3ccc(C#N)cc3)cs2)c(OC)c1 :: 3.6
N#Cc1ccc(-c2csc(NN=Cc3cc(F)cc(C(F)(F)F)c3)n2)cc1 :: 4.1
COc1cc(OC)c(OC)cc1C=NNc1nc(-c2ccc(C#N)cc2)cs1 :: 11.5

Notebook entry, HCT-116 colorectal carcinoma cells assay: Selectivity indices (SI), HCT-116 of `N#Cc1ccc(-c2csc(NN=Cc3cc(Br)cc([N+](=O)[O-])c3)n2)cc1` = ? 4.1

Entry to check: `N#Cc1ccc(-c2csc(NN=Cc3c(O)cc(O)cc3O)n2)cc1` 3.4

Next entry: `N#Cc1ccc(-c2csc(NN=Cc3c(F)cc(F)cc3F)n2)cc1` 0.7

---

GI50: recorded values
Tested on: MCF-7 breast cancer cells
assay.text: MTT cell viability assay, MCF-7
Format: cell-based, human
protocol.conditions: Homo sapiens, MCF7, 72 h, read-out: GI50 values (M) mean ± SD, MCF-7
# value in M; strip the unit string

N#Cc1ccc(-c2csc(NN=Cc3cc(Cl)ccc3O)n2)cc1 :: 4.1e-06
N#Cc1ccc(-c2csc(NN=Cc3cc(Br)cs3)n2)cc1 :: 4.3e-06
Cc1ccc(C=NNc2nc(-c3ccc(C#N)cc3)cs2)cc1C :: 4.5e-06
Cc1ccc(C)c(C=NNc2nc(-c3ccc(C#N)cc3)cs2)c1 :: 7.1e-06
Cc1nc(C=NNc2nc(-c3ccc(C#N)cc3)cs2)sc1C :: 9e-06

Form field: reported GI50 of `N#Cc1ccc(-c2csc(NN=Cc3cc(Br)ccc3O)n2)cc1` 7e-06

Query `N#Cc1ccc(-c2csc(NN=Cc3c(O)cc(O)cc3O)n2)cc1` next 2.3e-06

One more compound: `COc1cc(OC)c(OC)cc1C=NNc1nc(-c2ccc(C#N)cc2)cs1` 2.5e-06

Same again, this time with `Cc1cccc(C=NNc2nc(-c3ccc(C#N)cc3)cs2)c1O` 1e-06

Also check `N#Cc1ccc(-c2csc(NN=Cc3cc(Br)cc([N+](=O)[O-])c3)n2)cc1` 4.1e-06

Can you handle `N#Cc1ccc(-c2csc(NN=Cc3cc(F)cc(C(F)(F)F)c3)n2)cc1` next? 2.6e-06

Let us now turn to `N#Cc1ccc(-c2csc(NN=Cc3cc(F)cc(Br)c3)n2)cc1` 7.3e-06

And then `CCOc1cc(C=NNc2nc(-c3ccc(C#N)cc3)cs2)ccc1O` , what is it? 7.3e-06

Ok, now `COc1ccc(C=NNc2nc(-c3ccc(C#N)cc3)cs2)c(OC)c1` 9.2e-06

Item: `N#Cc1ccc(-c2csc(NN=Cc3c(F)cc(F)cc3F)n2)cc1` 7e-06

One more compound: `COc1ccc(C=NNc2nc(-c3ccc(C#N)cc3)cs2)c(C)c1` 3.68e-05

// next record `N#Cc1ccc(-c2csc(NN=Cc3c(F)c(F)c(F)c(F)c3F)n2)cc1` 1.7e-06

How about `Cc1cc(C)c(C=NNc2nc(-c3ccc(C#N)cc3)cs2)c(C)c1` ? 4.2e-06

Could you do the same for `N#Cc1ccc(-c2csc(N/N=C/c3cccc(F)c3)n2)cc1` , please? 3.66e-05

---

Entries and their measured GI50 follow.
System: MCF-7 breast cancer cells
assay.text: MTT cell viability assay, MCF-7
Assay type: cell-based, human
protocol.conditions: Homo sapiens, MCF7, 72 h, read-out: GI50 values (M) mean ± SD, MCF-7
Give just the numeric value; M need not be written.

Worked cases, answers included:
COc1cc(C=NNc2nc(-c3ccc(C#N)cc3)cs2)cc(OC)c1OC :: 2.7e-06
COc1ccc(OC)c(C=NNc2nc(-c3ccc(C#N)cc3)cs2)c1 :: 3.7e-06
N#Cc1ccc(-c2csc(N/N=C/c3cccc(I)c3)n2)cc1 :: 2.3e-06
N#Cc1ccc(-c2csc(N/N=C/c3ccccc3F)n2)cc1 :: 3.4e-06
N#Cc1ccc(-c2csc(NN=Cc3c(Cl)cccc3Cl)n2)cc1 :: 2.54e-05
N#Cc1ccc(-c2csc(NN=Cc3sccc3Br)n2)cc1 :: 3.9e-06
COc1cc(C=NNc2nc(-c3ccc(C#N)cc3)cs2)cc(OC)c1 :: 4.78e-05
N#Cc1ccc(-c2csc(NN=Cc3ccc(C(F)(F)F)cc3C(F)(F)F)n2)cc1 :: 2e-06

Using the record for `N#Cc1ccc(-c2csc(NN=Cc3ccc(Cl)c(Cl)c3)n2)cc1` , report its GI50. 1.28e-05

---

System: HCT-116 colorectal carcinoma cells
assay.text: MTT cell viability assay, HCT-116
Format: cell-based, human
protocol.conditions: HCT-116 versus MRC-5 fibroblasts
experimental.endpoint: Selectivity indices (SI), HCT-116
Enter the number alone.

Guide cases for Selectivity indices (SI), HCT-116, answers given:
CCOc1cc(C=NNc2nc(-c3ccc(C#N)cc3)cs2)ccc1O :: 2.2
N#Cc1ccc(-c2csc(NN=Cc3cc(Br)ccc3O)n2)cc1 :: 3.6
N#Cc1ccc(-c2csc(NN=Cc3sccc3Br)n2)cc1 :: 12.2
N#Cc1ccc(-c2csc(NN=Cc3c(Cl)cccc3Cl)n2)cc1 :: 11
N#Cc1ccc(-c2csc(NN=Cc3cc(Br)cs3)n2)cc1 :: 1.2

Selectivity indices (SI), HCT-116 for N.N.[Cl][Pt][Cl] [cisplatin, reference compound] ? 0.9

Try `N#Cc1ccc(-c2csc(NN=Cc3cc(Cl)ccc3O)n2)cc1` next. 1.7

Record: `COc1cc(C=NNc2nc(-c3ccc(C#N)cc3)cs2)cc(OC)c1OC` 14.6

Please give the result for `COc1ccc(OC)c(C=NNc2nc(-c3ccc(C#N)cc3)cs2)c1` too. 3.3

And the next one, `Cc1nc(C=NNc2nc(-c3ccc(C#N)cc3)cs2)sc1C` ? 5.1

Please give the result for `Cc1ccc(C=NNc2nc(-c3ccc(C#N)cc3)cs2)cc1C` too. 2

---

Test system: HCT-116 colorectal carcinoma cells
assay.text: MTT cell viability assay, HCT-116
Type: cell-based, human
protocol.conditions: HCT-116 versus MRC-5 fibroblasts
experimental.endpoint: Selectivity indices (SI), HCT-116
Give your answer as a number; write no unit.

Example entries begin here.
Cc1cc(C)c(C=NNc2nc(-c3ccc(C#N)cc3)cs2)c(C)c1 :: 2.8
N#Cc1ccc(-c2csc(NN=Cc3cc(F)cc(Br)c3)n2)cc1 :: 2.2
N#Cc1ccc(-c2csc(NN=Cc3ccc(C(F)(F)F)cc3C(F)(F)F)n2)cc1 :: 3.5
N#Cc1ccc(-c2csc(NN=Cc3c(F)c(F)c(F)c(F)c3F)n2)cc1 :: 2.8
COc1cc(C=NNc2nc(-c3ccc(C#N)cc3)cs2)cc(OC)c1 :: 0.5

Consider the compound `Cc1cccc(C=NNc2nc(-c3ccc(C#N)cc3)cs2)c1O` and give its measured Selectivity indices (SI), HCT-116. 10.8

Then `Cc1ccc(C)c(C=NNc2nc(-c3ccc(C#N)cc3)cs2)c1` ? 0.8

Please answer likewise for `N#Cc1ccc(-c2csc(NN=Cc3ccc(Cl)c(Cl)c3)n2)cc1` 1.1

Same again, this time with `COc1ccc(C=NNc2nc(-c3ccc(C#N)cc3)cs2)c(C)c1` 0.4
